# test_system: IRAK4 (Homo sapiens (Human))
# Sequence (Q9NWZ3 whole entry): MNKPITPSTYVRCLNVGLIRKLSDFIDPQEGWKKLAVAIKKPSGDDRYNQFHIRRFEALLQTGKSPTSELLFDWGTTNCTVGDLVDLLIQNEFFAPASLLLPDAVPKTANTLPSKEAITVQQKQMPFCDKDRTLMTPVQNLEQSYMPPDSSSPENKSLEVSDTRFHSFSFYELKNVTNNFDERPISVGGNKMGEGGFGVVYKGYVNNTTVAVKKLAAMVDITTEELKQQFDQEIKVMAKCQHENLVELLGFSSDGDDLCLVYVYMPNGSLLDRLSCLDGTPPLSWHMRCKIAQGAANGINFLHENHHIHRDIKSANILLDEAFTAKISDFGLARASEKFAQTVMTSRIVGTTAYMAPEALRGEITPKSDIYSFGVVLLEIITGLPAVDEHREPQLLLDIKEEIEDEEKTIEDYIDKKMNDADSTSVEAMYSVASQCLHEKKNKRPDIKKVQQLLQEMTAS
# test_method_notes: IRAK4 enzyme assay (mass spectrometry readout)
# Assay type: biochemical
# assay_conditions: human recombinant IRAK4 0.2 nM, 3 mM ATP; geometric mean of at least 2 experiments
IC50 overview
reported_property: IC50 (nM)

molecule	reported_property	measured
COc1cc2nn([C@@H]3CCC(N(C)C(C)=O)C[C@H]3C)cc2cc1C(=O)Nc1cccn(C)c1=O (single isomer, unassigned) [Example 2]	IC50	10.7
COc1cc2nn([C@H]3CC[C@H](c4nnco4)CC3)cc2cc1C(=O)Nc1cccn(C)c1=O [Example 25]	IC50	1.7
COc1cc2nn([C@@H]3CCC(N(C)C(C)=O)C[C@H]3C)cc2cc1C(=O)Nc1cccn(C)c1=O (single isomer, unassigned) [Example 3]	IC50	0.7
COc1cc2nn([C@H]3CC[C@H](N(C)C(=O)[C@H](C)O)CC3)cc2cc1C(=O)Nc1cccn(C2CC2)c1=O [Example 11]	IC50	0.9
COc1cc2nn([C@H]3CC[C@H](N(C)C(=O)[C@@H](C)O)CC3)cc2cc1C(=O)Nc1cccn(CF)c1=O [Example 9]	IC50	0.4
COc1cc2nn([C@H]3CC[C@H](n4ccnc4C(C)O)CC3)cc2cc1C(=O)Nc1cccn(C)c1=O (single isomer, unassigned) [Example 28]	IC50	0.5
